Experiment: TOX21_p53_BLA_p3_viability: Viability Assessment in the Tox21 HCT-116 p53 Agonism Beta-lactamase Assay, Phase 3 (AID 2283593);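 further: cells exposed to compound for 16 h before reading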
Results filed as inconclusive are left out. The source made the active and inactive calls. How the source made its calls: active means hit-call score of the fitted dose curve at least 0.9, where 1 is the maximum; inconclusive means response in the unintended direction; inactive means score below 0.9.
Outcome codes: active, inactive

{"columns": ["compound", "class assignment"],
 "data": [
  ["CNc1ccc(C(=O)CC(O)CCC(C)C2OC(=O)CC(O)CC(=O)CC(O)CC(O)CC(O)CC(O)CC3(O)CC(O)C(C(=O)OC)C(CC(O[C@@H]4O[C@H](C)[C@@H](O)[C@H](N)[C@@H]4O)/C=C/C=C/C=C/C=C/C=C/C=C/C=C/C2C)O3)cc1 (stereo partly drawn) (tested in a mixture with another compound)", "inactive"],
  ["ClCc1ccccc1", "inactive"],
  ["CC[C@H](N)c1ccccc1", "inactive"],
  ["OCCSCSCCO", "inactive"],
  ["NCC(O)c1cccc(O)c1 (stereo not drawn)", "inactive"],
  ["Cc1cnc[nH]1", "inactive"],
  ["COC1=CC(=O)O[C@@H](CCc2ccccc2)C1", "inactive"],
  ["Clc1ccc(CSC(Cn2ccnc2)c2ccc(Cl)cc2Cl)cc1 (stereo not drawn)", "inactive"],
  ["Cc1nnc2n1-c1sc(CCc3ccc(CC(C)C)cc3)cc1C(c1ccccc1Cl)=NC2C (stereo not drawn)", "active"],
  ["CCCCCCC#N", "inactive"],
  ["C=CC[C@]1(O)CC[C@H]2[C@@H]3CCC4=CC(=O)CCC4=C3C=C[C@@]21C", "inactive"],
  ["CCCN(CCCl)c1c([N+](=O)[O-])cc(C(F)(F)F)cc1[N+](=O)[O-]", "inactive"],
  ["Fc1ccc(C(OCCN2CCN(CCCc3ccccc3)CC2)c2ccc(F)cc2)cc1", "active"],
  ["Cc1c(Cl)c(=O)oc2cc(OP(=O)(OCCCl)OCCCl)ccc12", "inactive"],
  ["CC(N)Cc1ccc(O)cc1 (stereo not drawn)", "inactive"],
  ["Nc1ccc([N+](=O)[O-])cc1N", "inactive"],
  ["SCc1ccccc1", "inactive"],
  ["CCCCCCI", "inactive"]
]}

====

Molecular target: Norway rat Vesicular Monoamine Transporter (VMAT2), neurotransmitter transporter, Slc18a2 (gene 25549)
Experiment: NVS_TR_rVMAT2: NovaScreen (NVS) Transporter Assay for Norway rat Vesicular Monoamine Transporter (VMAT2), neurotransmitter transporter (AID 2283376);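 further: actives lower the bound radioligand signal below the DMSO level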
Records with an inconclusive call do not appear. The source made the active and inactive calls. How the source made its calls: active means hit-call score of the fitted dose curve at least 0.9, where 1 is the maximum; inconclusive means response in the unintended direction; inactive means score below 0.9.
observable: AC50

{"columns": ["compound", "observed value"],
 "data": [
  ["O=C(c1ccccc1)c1ccc(O)cc1O", "inactive"],
  ["C=CCOC(Cn1ccnc1)c1ccc(Cl)cc1Cl (configuration not stated)", "12 µM (active)"],
  ["Oc1ccc(C(c2ccc(O)cc2)C(Cl)(Cl)Cl)cc1", "7.63 µM (active)"],
  ["CN(C)c1ccc(C(=C2C=CC(=[N+](C)C)C=C2)c2ccccc2)cc1", "inactive"],
  ["O=c1c(-c2ccc(O)cc2)coc2cc(O)cc(O)c12", "inactive"],
  ["Nc1ccc(Nc2ccccc2)cc1", "8.65 µM (active)"],
  ["Nc1ccc(Oc2cccc(Oc3ccc(N)cc3)c2)cc1", "inactive"],
  ["Cc1ccc(O)c(C(C)(C)C)c1", "inactive"],
  ["CCCCC(CC)C(=O)O (configuration not stated)", "inactive"],
  ["CCCCCCCCCCCCCCCCCC(=O)OCC(CC)CCCC (configuration not stated)", "inactive"],
  ["CO[C@H]1/C=C/O[C@@]2(C)Oc3c(C)c(O)c4c(O)c(c(/C=N/N5CCN(C)CC5)c(O)c4c3C2=O)NC(=O)/C(C)=C\\C=C\\[C@H](C)[C@H](O)[C@@H](C)[C@@H](O)[C@@H](C)[C@H](OC(C)=O)[C@@H]1C", "inactive"],
  ["[Cl][Sc]([Cl])[Cl]", "inactive"]
]}
